# Test system: P388 leukemia ip, CD2F1 mice, survival T/C
# ASSAY_INFO: NCI In Vivo Anticancer Drug Screen. Data for tumor model P388 Leukemia (intraperitoneal) in CD2F1 (CDF1) mice
# MEASUREMENT_PARAMETERS: endpoint: median survival time; dose: 50.0 mg/kg/injection; schedule: Q01DX009 (ip); vehicle: saline; higher = longer survival
Toxic doses and inconclusive results are not listed.
Field: T/C. Provide a value for each of the compounds that follow.

Example cases with answers are listed next.
INSERT INTO assay_data (compound, measured_value) VALUES
  ('CN(C)P(=O)(N(C)C)N1CCCC1', '104 % of control'),
  ('COC(=O)C(=Cc1ccc(OC)cc1)C(=O)OC', '95 % of control'),
  ('O=C(O)CCC(=O)NCCOC(=O)CCC(=O)O', '99 % of control'),
  ('Cc1ccc(S(=O)(=O)O/N=C(/C#N)c2ccccc2)cc1', '101 % of control');

Hello, I would appreciate it if you could give T/C for each entry below.
1. O=C(O)C1[N-]CCNC1C(=O)O.[O]=[V][OH] (stereo unspecified)
2. CC(=O)NC(Cc1c[nH]c2ccccc12)C(=O)Oc1ccc([N+](=O)[O-])cc1 (stereo unspecified)

91 % of control
95 % of control

---

# Test system: P388 leukemia ip, CD2F1 mice, survival T/C
# ASSAY_INFO: NCI In Vivo Anticancer Drug Screen. Data for tumor model P388 Leukemia (intraperitoneal) in CD2F1 (CDF1) mice
# MEASUREMENT_PARAMETERS: endpoint: median survival time; dose: 200.0 mg/kg/injection; schedule: Q01DX005 (ip); vehicle: Klucel (hydroxypropylcellulose) (HPC); higher = longer survival
Inconclusive results and toxic doses are left out.
Consider the following molecules; for each one, report its T/C.

INSERT INTO assay_data (molecule, assay_endpoint, measured_value) VALUES
  ('CCOC(=O)C(=CNc1cc(OC(C)=O)ccc1C)C(=O)OCC', 'T/C', '96 % of control'),
  ('O=[N+]([O-])c1ccc(SN2CCCCC2CC2CCCCC2)c([N+](=O)[O-])c1 (stereo unspecified)', 'T/C', '96 % of control'),
  ('Cc1cc2c(cc1C)NC1C(=O)C(c3cccc([N+](=O)[O-])c3)OC1=N2 (stereo unspecified)', 'T/C', '87 % of control'),
  ('CCC(c1cccc(O)c1)C(CC)c1cccc(O)c1 (stereo unspecified)', 'T/C', '103 % of control'),
  ('O=c1[nH]c(=S)c2c(n1CCCO)CCC2', 'T/C', '105 % of control');

Continue with the next molecule.
Form field T/C for item Oc1ccc(O)c(-c2c(-c3ccccc3)cc3ccccn23)c1 on P388 leukemia ip, CD2F1 mice, survival T/C: 104 % of control

---

# System: P388 leukemia ip, CD2F1 mice, survival T/C
# ASSAY_INFO: NCI In Vivo Anticancer Drug Screen. Data for tumor model P388 Leukemia (intraperitoneal) in CD2F1 (CDF1) mice
# MEASUREMENT_PARAMETERS: endpoint: median survival time; dose: 60.0 mg/kg/injection; schedule: Q01DX005 (ip); vehicle: Klucel + Tween-80; higher = longer survival
Toxic doses and inconclusive results are not listed.
Exercise: state measured T/C for each of the molecules provided.

// worked examples, T/C included
INSERT INTO results (molecule, measured_value) VALUES
  ('Cc1[nH]c2ccccc2c1-c1cc(-c2cc(-c3c(C)[nH]c4ccccc34)on2)no1', '97 % of control'),
  ('COC(=O)c1nc(=S)[nH]c(C(=O)OC)c1C(=O)c1ccccc1', '101 % of control'),
  ('[O-][n+]1c(-c2ccccc2)c(Cl)c(-c2ccccc2)n1O', '98 % of control');

For every listed record, write down its T/C.
1. N=C1OC(C(Cl)(Cl)Cl)N(c2cccc(F)c2)C1=O (stereo not given)
2. CCOc1ccc(N=Nc2c(C)nn(C(=S)SC)c2OCC)cc1

1: 100 % of control; 2: 95 % of control
